Item-by-item account of pKa
EXPERIMENTAL PARAMETERS: basic group
The reply should be a number, written without any unit.

Examples from the recorded data:
molecule=CCCn1ccnc1CO readout_kind=pKa val=7.04
molecule=NCc1ccc(F)c([O-])c1 readout_kind=pKa val=10
molecule=CC[NH+](CC)[C@H]1CCC[C@@H]1N(C)C readout_kind=pKa val=5.76
molecule=CCN(CC)CCCC#N readout_kind=pKa val=9.29
molecule=O=[N+]([O-])c1cnc([O-])nc1[O-] readout_kind=pKa val=11.5
molecule=O=[N+]([O-])c1ccc2[nH]ncc2c1 readout_kind=pKa val=0.13
molecule=CC(C)N1CCCC1 readout_kind=pKa val=11.2
molecule=OCCCNc1nc(NCCCO)nc(NCCCO)n1 readout_kind=pKa val=5.48

Problem: Give its pKa value. Item: `CCCN(C)N`
Solution: 7.35

Problem: What value of pKa has been recorded for this entry: `N[C@@H](Cc1nc[nH]c1I)C(=O)[O-]`
Solution: 8.62

Problem: Given the molecule `NNC(=O)c1ccccn1` , what is its reported pKa?
Solution: 2.86

---

EXPERIMENTAL PARAMETERS: acidic group
# binarize pKa: threshold 9 inclusive, high side 1, low side -1

# count of solved cases: 5
compound=COc1ccc(C)c(C(=O)O)c1 discrete_label=-1
compound=CCOc1ccc(C(=O)O)cc1 discrete_label=-1
compound=Cc1ccc(O)c(C(=O)O)c1 discrete_label=-1
compound=Cc1ccc2c(c1[O-])-c1c-2ccc(C)c1O discrete_label=1
compound=Oc1ccc2nccnc2c1 discrete_label=-1

Problem: Reported pKa at or above 9? `Cc1nnc(NS(=O)(=O)c2ccc(O)cc2)s1`
Solution: -1

Problem: Has `O=Cc1cccc(Cl)c1O` a recorded pKa greater than or equal to 9?
Solution: -1

Problem: Determine whether measured pKa meets or exceeds 9 for `Nc1ccc(S(=O)(=O)Nc2ccn(-c3ccccc3[N+](=O)[O-])n2)cc1`
Solution: -1

Problem: Is reported pKa greater than or equal to 9 here: `CCN(CC)C(=S)NC(=O)c1ccc(F)cc1`
Solution: -1

Problem: Hi team, for CCCSC(C)C(=O)O (stereo unspecified) , is the recorded pKa at or above 9?
Solution: -1

Problem: Assess whether reported pKa for `Nc1cccc(O)c1` sits at 9 or higher.
Solution: 1

Problem: Dear colleague, could you confirm whether `COc1ccccc1O` has pKa at or above 9?
Solution: 1

Problem: State whether the measured pKa reaches 9, counting equality as reaching it, for `CCCCB(O)O`
Solution: 1

Problem: For this compound, is measured pKa 9 or higher? `O=C(c1ccc([N+](=O)[O-])cc1)c1cc[nH]n1`
Solution: 1

Problem: Could you please find out whether `O=C([O-])c1cccc([N+](=O)[O-])c1O` has pKa that meets 9 or exceeds it?
Solution: 1

Problem: Is pKa at least 9? Consider `Oc1cccn[nH+]1`
Solution: -1

Problem: Determine whether measured pKa meets or exceeds 9 for `SCC[NH2+]Cc1ccccc1`
Solution: -1

Problem: Tell me whether pKa is at least 9 here: `ONc1ccc(O)cc1`
Solution: 1

Problem: Please tell me: is the compound `COc1cccc(C)c1C(=O)O` at or over 9 in terms of pKa?
Solution: -1

Problem: Check if pKa >= 9 (inclusive). Item: `COc1ccc(S(=O)(=O)Nc2ccccc2)cc1`
Solution: -1

Problem: Is pKa at least 9? Consider `CC1(C)N=C(C(=O)CC(=O)C(F)(F)F)C(C)(C)N1O`
Solution: -1

Problem: Evaluate CC(C#N)C(C)(C)C(=O)O (stereo unspecified) : pKa at minimum 9?
Solution: -1

Problem: Confirm if pKa reported for the compound `O/C(=C/c1ccccn1)c1ccccc1` is 9 or above.
Solution: 1

Problem: Does `CC(C)[C@H](C(=O)O)N1C[C@H](NC(=O)Cc2ccccc2)C1=O` have a reported pKa of at least 9?
Solution: -1

---

EXPERIMENTAL PARAMETERS: basic group
Assign class by pKa: not lower than 7 means label 1; lower than 7 means label 0.

Solved entries (count: 3):
compound=C#C[C@]1(O)C[C@H](C)N(C)[C@@H]2CCCC[C@H]21 discrete_label="label 1"
compound=C[n+]1c(NN)ccc2ccccc21 discrete_label="label 0"
compound=Cc1nc2c(N)cccc2[nH]1 discrete_label="label 1"

Problem: Please indicate if the recorded pKa for `CCCCCCCCNCCC(=O)[O-]` meets or exceeds 7.
Solution: label 1

Problem: Could you tell me if the measured pKa of `COc1cccc2cccnc12` reaches 7 or more?
Solution: label 0

Problem: Could you tell me if the measured pKa of `NC(=O)CN(CC[NH+](CC(N)=O)Cc1ccccc1O)Cc1ccccc1O` reaches 7 or more?
Solution: label 0

Problem: Given CCC(C)Nc1ccccc1 (stereo not given) , state whether its pKa is at least 7.
Solution: label 0

Problem: # check: pKa of `CN(C)c1ccc(/N=N/c2ccncc2)cc1` is greater than or equal to 7
Solution: label 0

Problem: Check the entry `Cc1c[nH]cn1` : does pKa equal or exceed 7?
Solution: label 1

Problem: Entry `COc1ccc(-c2nc3ncncc3[nH]2)c(OC)c1` : is its pKa no less than 7?
Solution: label 0

Problem: Please tell me: is the compound `Cc1ccccc1CN` at or over 7 in terms of pKa?
Solution: label 1

Problem: State whether the measured pKa reaches 7, counting equality as reaching it, for `C/C(CCN(C)C)=N\[O-]`
Solution: label 1

Problem: Kindly determine if pKa recorded for `[O-]c1nc([O-])c2[nH]cnc2n1` is above or exactly 7.
Solution: label 1

---

EXPERIMENTAL PARAMETERS: basic group
READOUT KIND: pKa
API note: the answer field is a bare number with no unit suffix.

Examples from the recorded data:
compound="CC([Se-])CN (centres undefined)" val=10.8
compound=C[Si](C)(C)CNC[Si](C)(C)C val=11
compound=C[C@@H]1CCC[C@H](N(C)C)C1 val=10.5
compound="CC(=O)OC(C)CN(C)C (centres undefined)" val=8.31
compound=COc1cccc(OC)c1-c1nc2ncccc2[nH]1 val=4.85
compound=C=CC(=O)NC(C)(C)CCN(C)C val=9.39
compound="COc1ccc(C2CCC[NH+]2C)cn1 (centres undefined)" val=1.34
compound="CC(C)(C)c1ccc(C(O)CCCN2CCC(C(O)(c3ccccc3)c3ccccc3)CC2)cc1 (centres undefined)" val=8.6
compound="CCC(C)NCC(C)C (centres undefined)" val=10.8
compound=Brc1ccc(Nc2ccccc2)cc1 val=1.73

Problem: What does the record list as pKa for CNCC(C)c1ccccc1 (centres undefined) ?
Solution: 9.87

Problem: Sample CCC(=O)C(c1ccccc1)(c1ccccc1)C(C)CN1CCOCC1 (centres undefined) — what was its pKa?
Solution: 7.12

Problem: // lookup pKa for `Nc1ccc(-c2ccc(/[NH+]=C/c3ccc(O)cc3)cc2)cc1`
Solution: 5.05

Problem: Any idea what its pKa is? The compound is `NC(=O)CCc1cccnc1`
Solution: 5.21

Problem: State the recorded pKa for this entry: CCN(CC)CC(O)CO (centres undefined)
Solution: 9.77

Problem: Consider the compound `O=C1CCc2ccccc2C1` and give its measured pKa.
Solution: 12.8

Problem: # get_value(readout='pKa', item= `O=[N+]([O-])c1ccc2cccnc2c1O` )
Solution: 1.94

Problem: What value of pKa has been recorded for this entry: CNCC(O)CO (centres undefined)
Solution: 9.55

---

Below: a set of entries, each annotated with reported pKa.
EXPERIMENTAL PARAMETERS: basic group
Respond numerically, and do not add a unit to the figure.

Problem: What value of measured pKa is listed for `C[C@@H]1CCC[C@H](C)N1C` ?
Solution: 10.2

Problem: Form field: reported pKa of `CCN(CC)CCNc1cc(Nc2ccc(Cl)cc2)nc(C)n1`
Solution: 9.3

Problem: Requested field: pKa. Item: CC(O)CN(CC(C)O)C(C)(C)C (stereo not drawn)
Solution: 9.36

Problem: # get_value(readout='pKa', item= `C#CCCN(C)C` )
Solution: 8.33

Problem: What does the data say about its pKa? Entry: `CCN(CC)CCCCNc1cc[nH+]c2ccccc12`
Solution: 8.94

Problem: Please give the measured pKa for this compound: `C=C(C)C(=O)NCCN(CC)CC`
Solution: 9.37

Problem: Endpoint output: pKa of `CC(=O)c1ccc(NN=C(C#N)C#N)cc1` . Value?
Solution: -0.77

Problem: Dear colleague, I am looking for the recorded pKa of the following compound: `N#CCCNCCC#N`
Solution: 5.23

---

EXPERIMENTAL PARAMETERS: basic group
READOUT KIND: pKa
Just the number, please, no unit attached.

Field: example entries. Status: answers known.
compound=CNC(=N)N val=13.4
compound=C=C[C@]1(O)C[C@H](C)N[C@@H]2CCCC[C@H]21 val=9.83
compound="Cc1ccc(N(CC2CO2)CC2CO2)cc1 (stereo not drawn)" val=-0.48
compound=CCOc1ccc2c3c1O[C@H]1[C@@H](O)C=C[C@H]4[C@@H](C2)N(C)CC[C@@]341 val=8.03

Problem: # pKa lookup, item CN1[C@@H]2CC[C@H]1C[C@H](OC(=O)C(O)c1ccccc1)C2 (stereo partly drawn)
Solution: 9.61

Problem: Endpoint output: pKa of `COc1cncnc1[O-]` . Value?
Solution: 8.6

Problem: Requested field: pKa. Item: `O=C(O)c1nccs1`
Solution: 2.57

Problem: Look at this compound and give its reported pKa. `CNC(C)(C)C(=O)[O-]`
Solution: 10.8

These data points were gathered from the pKa sets of Baltruschat and Czodrowski (2020).
